- Test details: Half life in Sprague-Dawley rat at 1 mg/kg, po
- Assay type: ADME, organism-based
- Set-up: dose 1 mg/kg, route oral
- Applied conditions: in vivo
Result type: half-life

So what does the record say about half-life for "O=c1cc(COc2cc(Cl)cc(Cl)c2)[nH][nH]1" ?
3.6 h

###

- Target: L-type calcium channel, benzothiazepine site (Rattus norvegicus, UniProt P22002+P27732+Q02485)
- Test details: Inhibition of rat calcium channel L-type, benzothiazepine site at 10 uM by radioligand displacement assay
Result type: inhibition at 10 µM (%)
State just the number; it will be interpreted in %.

// lookup inhibition at 10 µM for "O=c1cc(COc2cc(Cl)cc(Cl)c2)[nH][nH]1"
-2

###

- Test details: Apparent permeability from apical to basolateral side in human Caco2 cells
- Format: ADME, cell-based
- Applied conditions: Caco-2
Result type: Papp A→B (×10⁻⁶ cm/s)
Response body: numeric value in ×10⁻⁶ cm/s, unit text excluded.

Bench note: what Papp A→B did "O=c1cc(CS(=O)(=O)c2cc(Cl)cc(Cl)c2)[nH][nH]1" show?
27

###

- Test details: Apparent permeability from basolateral to apical side in human Caco2 cells
- Type: ADME, cell-based
- Applied conditions: Caco-2
Result type: Papp B→A (×10⁻⁶ cm/s)
Field format: number, assumed ×10⁻⁶ cm/s, no unit text.

Query: Papp B→A; subject: "O=c1cc(CS(=O)(=O)c2cc(Cl)cc(Cl)c2)[nH][nH]1"
4.4

###

- Test details: Plasma concentration in B6SJL mouse at 300 mg/kg after 3 hrs by mass spectrometry
- Assay type: ADME, organism-based
- Parameters: dose 300 mg/kg
Result type: concentration at 3 h (µM)
Report as a plain number; the unit µM is understood.

Which concentration at 3 h is reported for this compound? "O=c1cc(COc2cc(Cl)cc(Cl)c2)[nH][nH]1"
342

###

- Test details: Aqueous solubility of the compound in PBS after 45 mins
- Format: physicochemical
- Applied conditions: PBS
Result type: solubility at 0.75 h

Form field: reported solubility at 0.75 h of "O=c1cc(CS(=O)(=O)c2cc(Cl)cc(Cl)c2)[nH][nH]1"
≥ 500 µM

###

- Target: L-type calcium channel, dihydropyridine site (Rattus norvegicus, UniProt P22002+P27732+Q02485)
- Test details: Inhibition of rat calcium channel L-type, dihydropyridine site at 10 uM by radioligand displacement assay
Result type: inhibition at 10 µM

Consider the compound shown here: "O=c1cc(COc2cc(Cl)cc(Cl)c2)[nH][nH]1" What is its recorded inhibition at 10 µM?
-5%

###

- Target: hERG (Homo sapiens, UniProt Q12809)
- Sequence (Q12809 whole entry): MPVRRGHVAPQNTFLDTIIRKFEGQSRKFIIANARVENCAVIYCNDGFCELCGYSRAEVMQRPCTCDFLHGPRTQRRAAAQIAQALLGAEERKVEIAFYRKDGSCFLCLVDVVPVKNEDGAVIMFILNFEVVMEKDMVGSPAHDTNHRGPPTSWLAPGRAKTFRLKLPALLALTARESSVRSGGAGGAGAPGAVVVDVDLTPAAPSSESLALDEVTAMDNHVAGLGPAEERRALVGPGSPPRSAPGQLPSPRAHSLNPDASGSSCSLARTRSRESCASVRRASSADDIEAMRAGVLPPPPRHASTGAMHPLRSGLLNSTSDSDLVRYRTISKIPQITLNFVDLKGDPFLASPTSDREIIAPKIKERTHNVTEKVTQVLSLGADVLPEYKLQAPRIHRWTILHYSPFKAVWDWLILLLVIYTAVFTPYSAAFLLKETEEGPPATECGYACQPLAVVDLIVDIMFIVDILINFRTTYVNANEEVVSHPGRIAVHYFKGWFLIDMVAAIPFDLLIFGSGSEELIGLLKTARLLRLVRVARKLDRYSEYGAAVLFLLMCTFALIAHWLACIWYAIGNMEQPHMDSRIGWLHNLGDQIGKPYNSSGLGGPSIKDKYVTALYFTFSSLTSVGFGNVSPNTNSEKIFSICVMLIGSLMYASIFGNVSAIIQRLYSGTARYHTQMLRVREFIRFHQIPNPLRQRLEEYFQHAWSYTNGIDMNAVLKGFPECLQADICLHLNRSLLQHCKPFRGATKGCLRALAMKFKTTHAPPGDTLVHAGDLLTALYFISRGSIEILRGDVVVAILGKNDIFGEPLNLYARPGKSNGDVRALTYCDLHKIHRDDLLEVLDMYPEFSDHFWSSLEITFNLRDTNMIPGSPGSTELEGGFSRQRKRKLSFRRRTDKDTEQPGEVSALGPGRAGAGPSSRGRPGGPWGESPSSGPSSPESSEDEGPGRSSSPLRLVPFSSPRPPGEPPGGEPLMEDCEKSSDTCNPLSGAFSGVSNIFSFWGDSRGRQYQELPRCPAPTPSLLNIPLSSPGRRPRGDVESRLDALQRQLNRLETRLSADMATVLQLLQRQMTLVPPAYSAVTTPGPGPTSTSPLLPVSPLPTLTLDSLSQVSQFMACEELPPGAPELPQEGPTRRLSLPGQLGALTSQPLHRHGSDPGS
- Test details: Inhibition of human ERG at 10 uM by radioligand displacement assay
Result type: inhibition at 10 µM (%)
State just the number; it will be interpreted in %.

Hello, I am looking for reported inhibition at 10 µM with hERG (Homo sapiens, UniProt Q12809) for "O=c1cc(COc2cc(Cl)cc(Cl)c2)[nH][nH]1" . Could you help?
-7

###

- Test details: Plasma concentration in B6SJL mouse at 300 mg/kg after 6 hrs by mass spectrometry
- Assay type: ADME, organism-based
- Parameters: dose 300 mg/kg
Result type: concentration at 6 h (µM)
Your answer should be a plain number; it is taken to be in µM.

Find the recorded concentration at 6 h belonging to "O=c1cc(COc2cc(Cl)cc(Cl)c2)[nH][nH]1" and report it.
347

###

- Test details: Plasma concentration in B6SJL mouse at 300 mg/kg after 24 hrs by mass spectrometry
- Type: ADME, organism-based
- Parameters: dose 300 mg/kg
Result type: concentration at 24 h (µM)
Value expressed in µM; do not type the unit.

Item "O=c1cc(COc2cc(Cl)cc(Cl)c2)[nH][nH]1" has what recorded concentration at 24 h?
6.5

###

- Target: hERG (Homo sapiens, UniProt Q12809)
- Test details: Inhibition of human ERG expressed in human HEK293 cells at 10 uM by patch clamp assay
- Format: cell-based
- Applied conditions: HEK293 cells that express hERG
Result type: inhibition at 10 µM (%)
API: value field is a number in %; no unit string.

If you can, please state the reported inhibition at 10 µM value of "O=c1cc(COc2cc(Cl)cc(Cl)c2)[nH][nH]1" .
0.6

###

- Test details: AUClast in Sprague-Dawley rat at 1 mg/kg, iv
- Type: ADME, organism-based
- Design: dose 1 mg/kg, route intravenous, time 0 - last
- Applied conditions: plasma
Result type: AUC(0-t) (ng·h/mL)
API: value field is a number in ng·h/mL; no unit string.

Quick check: AUC(0-t) of "O=c1cc(COc2cc(Cl)cc(Cl)c2)[nH][nH]1" ?
179

###

- Test details: AUClast in Sprague-Dawley rat at 1 mg/kg, po
- Format: ADME, organism-based
- Design: dose 1 mg/kg, route oral, time 0 - last
- Applied conditions: plasma
Result type: AUC(0-t) (ng·h/mL)
The response must be a number in ng·h/mL with no trailing unit.

Tell me the measured AUC(0-t) of "O=c1cc(COc2cc(Cl)cc(Cl)c2)[nH][nH]1" , please.
42

###

- Test details: Volume of distribution at steady state in Sprague-Dawley rat at 1 mg/kg, iv
- Assay type: ADME, organism-based
- Design: dose 1 mg/kg, route intravenous
- Applied conditions: in vivo, read-out: Vdss
Result type: Vd (L/kg)
Kindly answer with a numeric value in L/kg, unit omitted.

Recorded Vd for "O=c1cc(COc2cc(Cl)cc(Cl)c2)[nH][nH]1" , please?
5.7

###

- Test details: Drug uptake in B6SJL mouse brain at 300 mg/kg after 4 hrs
- Assay type: ADME, organism-based
- Set-up: dose 300 mg/kg
- Applied conditions: read-out: Drug uptake
Result type: concentration at 4 h (µM)
Give a bare numeral; the unit µM is implied.

Need concentration at 4 h, item "O=c1cc(COc2cc(Cl)cc(Cl)c2)[nH][nH]1"
194

###

- Target: Cytochrome P450 2D6 (Homo sapiens, UniProt P10635)
- Sequence (P10635 whole entry): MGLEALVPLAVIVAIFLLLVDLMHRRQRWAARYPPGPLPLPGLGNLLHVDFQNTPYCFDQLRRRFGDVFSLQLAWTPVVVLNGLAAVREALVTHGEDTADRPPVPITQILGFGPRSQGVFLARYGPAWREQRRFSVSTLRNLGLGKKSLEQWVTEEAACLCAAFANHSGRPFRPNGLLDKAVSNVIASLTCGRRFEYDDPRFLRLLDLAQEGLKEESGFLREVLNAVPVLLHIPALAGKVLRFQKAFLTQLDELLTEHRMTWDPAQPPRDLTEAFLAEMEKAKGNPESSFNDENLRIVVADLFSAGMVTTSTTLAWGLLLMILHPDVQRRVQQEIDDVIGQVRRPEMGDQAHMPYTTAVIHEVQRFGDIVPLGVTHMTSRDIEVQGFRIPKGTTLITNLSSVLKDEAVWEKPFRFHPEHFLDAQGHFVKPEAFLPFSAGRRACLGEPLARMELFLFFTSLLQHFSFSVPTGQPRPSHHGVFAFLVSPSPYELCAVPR
pIC50: −log10 of the molar value.
Result type: pIC50

Need pIC50, item "O=c1cc(COc2cc(Cl)cc(Cl)c2)[nH][nH]1"
< 4.30

###

- Target: Cytochrome P450 2C19 (Homo sapiens)
- Sequence (P33261 whole entry): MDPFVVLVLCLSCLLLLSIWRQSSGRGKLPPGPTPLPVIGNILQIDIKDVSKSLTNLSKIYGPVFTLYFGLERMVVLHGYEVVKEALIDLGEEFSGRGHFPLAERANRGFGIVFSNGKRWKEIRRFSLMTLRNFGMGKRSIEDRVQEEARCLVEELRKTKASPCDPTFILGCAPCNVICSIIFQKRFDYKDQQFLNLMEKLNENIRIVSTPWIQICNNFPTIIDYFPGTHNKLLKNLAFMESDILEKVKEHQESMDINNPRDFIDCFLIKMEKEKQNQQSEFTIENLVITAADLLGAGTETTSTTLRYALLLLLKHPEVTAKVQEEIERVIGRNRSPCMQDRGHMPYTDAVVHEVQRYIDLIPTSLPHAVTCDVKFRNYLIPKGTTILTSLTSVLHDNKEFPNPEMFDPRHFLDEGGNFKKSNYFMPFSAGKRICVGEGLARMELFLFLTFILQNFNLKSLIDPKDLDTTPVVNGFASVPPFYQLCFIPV
Result type: IC50 (µM)
Could you give me the number in µM? Just the number is fine.

Given "O=c1cc(COc2cc(Cl)cc(Cl)c2)[nH][nH]1" , state its recorded IC50.
20

###

- System: Caco-2
- Test details: Apparent permeability from basolateral to apical side in human Caco2 cells
- Type: ADME, cell-based
Result type: Papp (×10⁻⁶ cm/s)
Respond numerically; units are ×10⁻⁶ cm/s and should not be typed.

O=c1cc(COc2ccc(Cl)cc2)[nH][nH]1: 28

Continue with the next molecule.
Request the reported Papp associated with "O=c1cc(COc2cc(Cl)cc(Cl)c2)[nH][nH]1"
14.1

###

- Test details: Drug metabolism in rat liver microsomes at 15 uM after 20 mins in presence of NADPH
- Format: ADME, Microsome
- Applied conditions: read-out: Drug metabolism
Result type: metabolised at 20 min, 15 µM (%)
The reply should be a number in %, with the unit left off.

Cc1cc(-c2ccccc2)nnc1NCCN1CCOCC1: 41

Moving on to the next compound.
Item "O=c1cc(CSc2ccc(Cl)cc2)[nH][nH]1" has what recorded metabolised at 20 min, 15 µM?
88

###

- Test details: Aqueous solubility of the compound in PBS after 16 hrs
- Format: physicochemical
- Applied conditions: PBS
Result type: solubility at 16 h

Requested field: solubility at 16 h. Item: "O=c1cc(CS(=O)(=O)c2cc(Cl)cc(Cl)c2)[nH][nH]1"
≥ 500 µM

###

- Test details: Intrinsic clearance in human microsomes at 5 uM incubated for 1 hr at 37 degC in presence of NADPH
- Assay type: ADME, Microsome
Result type: CLint scaled at 5 µM (L/h/kg)
Give your result in L/h/kg as a bare value.

Returns the measured CLint scaled at 5 µM for the input molecule. Input: "O=c1cc(CS(=O)(=O)c2cc(Cl)cc(Cl)c2)[nH][nH]1"
0.27

###

- Test details: Half life in mouse microsomes at 5 uM incubated for 1 hr at 37 degC in presence of NADPH
- Format: ADME, Microsome
Result type: half-life at 5 µM

Record request: half-life at 5 µM value, item "O=c1cc(CS(=O)(=O)c2cc(Cl)cc(Cl)c2)[nH][nH]1"
> 1 h

###

- Test details: Half life in Sprague-Dawley rat at 1 mg/kg, iv
- Format: ADME, organism-based
- Set-up: dose 1 mg/kg, route intravenous
- Applied conditions: in vivo
Result type: half-life (h)
Give the value, in units of h, as a plain number.

If you can, please state the reported half-life value of "O=c1cc(COc2cc(Cl)cc(Cl)c2)[nH][nH]1" .
2.1
